# experimental-system: P2X purinoceptor 7 (Rattus norvegicus)
# Sequence (Q64663 whole entry): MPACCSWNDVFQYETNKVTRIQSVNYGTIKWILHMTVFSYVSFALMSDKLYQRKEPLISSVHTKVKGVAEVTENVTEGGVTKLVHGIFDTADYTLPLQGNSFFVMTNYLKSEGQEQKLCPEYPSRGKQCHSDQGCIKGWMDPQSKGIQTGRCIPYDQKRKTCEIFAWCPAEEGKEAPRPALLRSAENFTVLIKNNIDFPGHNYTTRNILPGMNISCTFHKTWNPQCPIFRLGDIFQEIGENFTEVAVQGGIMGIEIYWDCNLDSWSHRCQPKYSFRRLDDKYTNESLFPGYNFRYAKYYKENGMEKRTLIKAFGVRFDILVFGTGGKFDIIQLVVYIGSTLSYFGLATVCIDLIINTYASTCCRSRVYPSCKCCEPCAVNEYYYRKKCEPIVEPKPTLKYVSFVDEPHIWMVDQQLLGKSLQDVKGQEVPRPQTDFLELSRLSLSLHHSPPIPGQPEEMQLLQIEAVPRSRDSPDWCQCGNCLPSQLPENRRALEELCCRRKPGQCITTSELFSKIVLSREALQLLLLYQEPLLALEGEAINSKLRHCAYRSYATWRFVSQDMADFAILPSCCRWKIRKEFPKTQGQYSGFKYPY
# assay-text: Antagonist activity at rat recombinant P2X7 receptor expressed in HEK293 cells by ethidium bromide […] assay
pIC50: −log10 of the molar value.
Quick rule for you: pIC50 at 6 or higher means Condition met, lower means Condition not met.

Below, 2 compounds whose answers are already recorded.
- input-smiles: "CCn1c(-c2ccc(F)cc2F)nc(C)c1CC(=O)NCc1c(C)cccc1Cl"
  class-assignment: "Condition met"
- input-smiles: "Cc1nc(-c2ccc(F)cc2F)n(C)c1CC(=O)NCc1ccc(F)c(F)c1F"
  class-assignment: "Condition not met"

Determine whether this compound has pIC50 no lower than 6: CCn1c(-c2ccccc2)nc(C)c1CC(=O)NCc1ccc(F)c(F)c1F
Condition not met

Form field: pIC50 at least 6? Entry: Cn1c(CC(=O)NCc2ccc(F)cc2Cl)cnc1-c1ccc(F)cc1F
Condition met

For this compound, is measured pIC50 6 or higher? Cc1nc(-c2ccc(F)cc2F)n(C)c1CC(=O)NCc1ccc(F)cc1Cl
Condition met

Is pIC50 for Cc1nc(-c2ccccc2)n(C)c1CC(=O)NCc1ccc(F)c(F)c1F at or above 6?
Condition not met

Answer whether pIC50 of CCn1c(-c2ccc(F)cc2F)nc(C)c1CC(=O)NCc1cccc(Cl)c1C is greater than or equal to 6.
Condition met

Check the entry CCn1c(CC(=O)NCc2ccc(F)cc2Cl)cnc1-c1ccc(F)cc1F : does pIC50 equal or exceed 6?
Condition met

API: above_or_equal(metric=pIC50, cutoff=6) for item Cc1nc(-c2ccccc2)n(C)c1CC(=O)NCc1ccc(F)cc1Cl
Condition met
